B1: TLE6 (parent)
chain: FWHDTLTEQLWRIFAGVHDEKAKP

variants of: B1; test: protein stability index of a GFP-peptide fusion (GPS, HEK-293T) (PSI 1-6); higher = more stable; settings: c terminus: a fixed tail appended;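 further: lentivirally expressed fusions sorted by FACS into six bins by GFP to DsRed ratio, PSI derived from sequencing read proportions per bin multiplied by bin number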
Please enter yes where protein stability index is greater than or equal to 2, and no where it is lower.

protein stability index >= 2 for F14D ? no

protein stability index >= 2 for V17W ? no

protein stability index >= 2 for I13W ? no

protein stability index >= 2 for Q9W ? yes

protein stability index >= 2 for Q9T ? yes

protein stability index >= 2 for F14G ? yes

protein stability index >= 2 for D4I ? yes

protein stability index >= 2 for L10C ? no

protein stability index >= 2 for A22S ? yes

protein stability index >= 2 for A22T ? yes

protein stability index >= 2 for K21P ? no

protein stability index >= 2 for I13M ? yes

protein stability index >= 2 for W11E ? yes

protein stability index >= 2 for F14W ? no

protein stability index >= 2 for V17H ? yes

protein stability index >= 2 for V17C ? no

protein stability index >= 2 for K23Q ? no

protein stability index >= 2 for Q9V ? yes

protein stability index >= 2 for K23I ? no

protein stability index >= 2 for G16S ? no

protein stability index >= 2 for H18K ? no

protein stability index >= 2 for F14A ? no

protein stability index >= 2 for K21N ? yes

protein stability index >= 2 for L10S ? yes

protein stability index >= 2 for R12L ? no

protein stability index >= 2 for P24T ? no

protein stability index >= 2 for L6A ? yes

protein stability index >= 2 for V17K ? no

protein stability index >= 2 for K23R ? no

protein stability index >= 2 for T5G ? no

protein stability index >= 2 for H3W ? yes

protein stability index >= 2 for A22L ? no

protein stability index >= 2 for W11T ? yes

protein stability index >= 2 for G16H ? yes

protein stability index >= 2 for G16V ? yes

protein stability index >= 2 for H18F ? no

protein stability index >= 2 for K23P ? no

protein stability index >= 2 for P24G ? no

protein stability index >= 2 for H3M ? yes

protein stability index >= 2 for L6D ? no

protein stability index >= 2 for K21V ? yes

protein stability index >= 2 for L10R ? no

protein stability index >= 2 for E20V ? no

protein stability index >= 2 for F1G ? yes

protein stability index >= 2 for K23S ? yes

Where do these numbers come from? They come from the supplement of paper PMC10567573.
